# TEST DETAILS: Dissociation constant, pKa of the compound
# Format: physicochemical
// values below are reported pKa
TEST READOUT: pKa

{"SMI": "CC(C)(C)[C@H](NC(=O)[C@H](CCCNC(=N)N)NC(=O)Cc1ccc(CNC(=N)N)cc1)C(=O)N[C@@H](CCCNC(=N)N)C(=O)NCc1ccc(N)nc1", "TEST READOUT": "pKa", "RESULT": 6.5}
{"SMI": "CC(C)(C)[C@H](NC(=O)[C@H](CCCNC(=N)N)NC(=O)Cc1ccc(CNC(=N)N)cc1)C(=O)N[C@@H](CCCNC(=N)N)C(=O)NCc1ccc(CN)cc1", "TEST READOUT": "pKa", "RESULT": 9.28}
{"SMI": "CC(C)(C)[C@H](NC(=O)[C@H](CCCNC(=N)N)NC(=O)Cc1ccc(CNC(=N)N)cc1)C(=O)N[C@@H](CCCNC(=N)N)C(=O)NCc1ccc(C(=N)N)c(F)c1", "TEST READOUT": "pKa", "RESULT": 9.46}

---

# TEST SYSTEM: Coagulation factor X (Homo sapiens, UniProt P00742)
# Sequence (P00742 41-179 limits assumed): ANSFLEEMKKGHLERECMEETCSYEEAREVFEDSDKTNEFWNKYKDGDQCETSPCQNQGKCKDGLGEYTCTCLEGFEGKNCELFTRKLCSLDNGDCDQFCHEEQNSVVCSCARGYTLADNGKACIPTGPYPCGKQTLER
# Sequence (P00742 235-488 limits assumed): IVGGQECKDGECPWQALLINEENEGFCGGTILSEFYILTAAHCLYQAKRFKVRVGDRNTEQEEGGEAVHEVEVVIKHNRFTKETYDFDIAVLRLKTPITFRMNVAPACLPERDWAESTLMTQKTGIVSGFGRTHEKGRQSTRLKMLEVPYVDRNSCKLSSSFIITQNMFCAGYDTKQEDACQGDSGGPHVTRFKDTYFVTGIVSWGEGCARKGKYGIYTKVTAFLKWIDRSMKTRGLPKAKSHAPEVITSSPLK
pKi: −log10 of the molar value.

{"SMI": "CC(C)(C)[C@H](NC(=O)[C@H](CCCONC(=N)N)NC(=O)Cc1ccc(CNC(=N)N)cc1)C(=O)N[C@@H](CCCONC(=N)N)C(=O)NCc1ccc(C(=N)N)cc1", "pKi": "< 5.52"}

---

# TEST DETAILS: Inhibition of porcine trypsin using Mes-DArg-Gly-Arg-AMC as substrate and measured by fluorescence assay
# Design: species or system Sus scrofa
pKi: −log10 of the molar value.
// values below are reported pKi
TEST READOUT: pKi

{"SMI": "CC(C)(C)[C@H](NC(=O)[C@H](CCCONC(=N)N)NC(=O)Cc1ccc(CNC(=N)N)cc1)C(=O)N[C@@H](CCCONC(=N)N)C(=O)NCc1ccc(C(=N)N)cc1", "QUANTITATIVE READOUT": 6.16}
{"SMI": "CC(C)(C)[C@H](NC(=O)[C@H](CCCNC(=N)N)NC(=O)Cc1ccc(CNC(=N)N)cc1)C(=O)N[C@@H](CCCNC(=N)N)C(=O)NCc1ccc(C(=N)N)cc1", "QUANTITATIVE READOUT": 7.28}

---

# TEST SYSTEM: Furin (Homo sapiens, UniProt P09958)
# Sequence (P09958 whole entry): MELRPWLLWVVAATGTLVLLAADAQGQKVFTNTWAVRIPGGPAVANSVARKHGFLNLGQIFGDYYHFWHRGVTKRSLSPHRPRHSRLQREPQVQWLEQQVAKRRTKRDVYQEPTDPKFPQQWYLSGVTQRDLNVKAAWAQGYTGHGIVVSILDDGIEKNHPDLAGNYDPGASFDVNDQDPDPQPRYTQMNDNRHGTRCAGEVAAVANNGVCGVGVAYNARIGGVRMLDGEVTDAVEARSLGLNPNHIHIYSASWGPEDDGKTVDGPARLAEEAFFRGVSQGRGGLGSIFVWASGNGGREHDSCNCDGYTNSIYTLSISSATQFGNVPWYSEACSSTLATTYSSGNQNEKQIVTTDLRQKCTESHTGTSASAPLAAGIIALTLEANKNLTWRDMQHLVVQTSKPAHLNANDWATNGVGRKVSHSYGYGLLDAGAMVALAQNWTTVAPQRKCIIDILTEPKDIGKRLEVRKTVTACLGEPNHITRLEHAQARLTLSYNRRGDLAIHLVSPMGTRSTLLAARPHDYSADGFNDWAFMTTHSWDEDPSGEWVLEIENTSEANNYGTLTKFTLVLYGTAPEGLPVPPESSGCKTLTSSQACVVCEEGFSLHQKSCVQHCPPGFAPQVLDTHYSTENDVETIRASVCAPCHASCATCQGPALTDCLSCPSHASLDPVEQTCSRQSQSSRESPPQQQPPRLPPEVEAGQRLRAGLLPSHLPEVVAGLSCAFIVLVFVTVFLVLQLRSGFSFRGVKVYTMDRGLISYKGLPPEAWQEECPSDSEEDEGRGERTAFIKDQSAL
# TEST DETAILS: Inhibition of human furin expressed in HEK293 cells using pGlu-Arg-Thr-LysArg-AMC as substrate and measured by fluorescence based assay
// values below are reported Ki

{"SMI": "CC(C)[C@H](NC(=O)[C@H](CCCNC(=N)N)NC(=O)Cc1cccc(CNC(=N)N)c1)C(=O)N[C@@H](CCCNC(=N)N)C(=O)NCc1ccc(C(=N)N)cc1", "Ki, nM": 0.016}
{"SMI": "CC(C)(C)[C@H](NC(=O)[C@H](CCCNC(=N)N)NC(=O)Cc1ccccc1)C(=O)N[C@@H](CCCNC(=N)N)C(=O)NCc1ccc(C(=N)N)cc1", "Ki, nM": 0.17}
{"SMI": "CC(C)[C@H](NC(=O)[C@H](CCCNC(=N)N)NC(=O)Cc1ccc(CNC(=N)N)cc1)C(=O)N[C@@H](CCCNC(=N)N)C(=O)NCc1ccc(C(=N)N)cc1", "Ki, nM": 0.0076}
